B1: library; numbered along this chain (parent)
chain: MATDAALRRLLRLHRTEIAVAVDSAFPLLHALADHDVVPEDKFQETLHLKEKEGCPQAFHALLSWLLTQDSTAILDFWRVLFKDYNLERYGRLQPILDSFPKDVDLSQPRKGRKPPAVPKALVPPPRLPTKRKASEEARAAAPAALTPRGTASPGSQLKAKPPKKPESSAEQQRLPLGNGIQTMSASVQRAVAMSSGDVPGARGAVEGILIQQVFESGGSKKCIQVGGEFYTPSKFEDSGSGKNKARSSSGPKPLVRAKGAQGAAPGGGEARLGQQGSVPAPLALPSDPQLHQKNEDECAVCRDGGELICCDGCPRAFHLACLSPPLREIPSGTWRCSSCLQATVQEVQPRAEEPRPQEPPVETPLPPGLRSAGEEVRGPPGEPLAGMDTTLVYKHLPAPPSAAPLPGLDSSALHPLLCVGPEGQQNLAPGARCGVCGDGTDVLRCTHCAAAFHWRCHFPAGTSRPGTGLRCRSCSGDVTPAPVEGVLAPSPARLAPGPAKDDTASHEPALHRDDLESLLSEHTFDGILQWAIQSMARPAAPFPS

Variants of: B1
Assay: AIRE transcriptional activation functional score (insulin promoter-GFP; nonsense median 0, synonymous median 1) (normalised score); higher = higher AIRE activity (more reporter activation)
Test Conditions: with insulin promoter-GFP reporter in HEK293
Could you label it Y if measured AIRE transcriptional activation functional score is 0.8 or higher, and N otherwise?

>>> cat("R127S")
"Y"
>>> cat("S99P")
"Y"
>>> cat("N179C")
"Y"
>>> cat("D515M")
"N"
>>> cat("L93P")
"N"
>>> cat("K294R")
"Y"
>>> cat("V226I")
"Y"
>>> cat("R494H")
"Y"
>>> cat("K253A")
"Y"
>>> cat("L128K")
"N"
>>> cat("P315I")
"Y"
>>> cat("S156F")
"Y"
>>> cat("E53Y")
"N"
>>> cat("A19T")
"N"
>>> cat("G382R")
"Y"
>>> cat("R89M")
"N"
>>> cat("E376Q")
"Y"
>>> cat("A500V")
"Y"
